tested on: Escherichia coli; assay: In vitro antibacterial activity against Escherichia coli SS; format: functional; conditions: Escherichia coli; read-out: MIC
Mark Met for MIC under 2 µg/mL, Not met if at or over.

Please review the following examples before continuing.
{"compound": "C/C(=C\\C(=O)OCCCCCCCCC(=O)[O-])C[C@@H]1OCC(C[C@@H]2O[C@H]2[C@@H](C)[C@H](C)O)[C@@H](O)[C@H]1O.[Na+] (some centres not stated)", "category label": "Met"}
{"compound": "CCCCS/C=C(/C)C[C@@H]1OCC(C[C@@H]2O[C@H]2[C@@H](C)[C@H](C)O)[C@@H](O)[C@H]1O (some centres not stated)", "category label": "Not met"}
{"compound": "C/C(=C\\C(=O)c1ccccc1)C[C@@H]1OCC(C[C@@H]2O[C@H]2[C@@H](C)[C@H](C)O)[C@@H](O)[C@H]1O (some centres not stated)", "category label": "Met"}
{"compound": "C/C(=C\\Sc1ccccc1)C[C@@H]1OC[C@H](C[C@@H]2O[C@H]2[C@@H](C)[C@H](C)O)[C@@H](O)[C@H]1O", "category label": "Met"}
{"compound": "CSC(CCCCCCCCCC(=O)/C=C(\\C)C[C@@H]1OCC(C[C@@H]2O[C@H]2[C@@H](C)[C@H](C)O)[C@@H](O)[C@H]1O)(SC)SC (some centres not stated)", "category label": "Not met"}

## Task Criterion: MIC strictly below 2 µg/mL. Is it met by COC(=O)CCCCCCCCOC(=O)CC(=O)C[C@@H]1OCC(C[C@@H]2O[C@H]2[C@@H](C)[C@H](C)O)[C@@H](O)[C@H]1O (some centres not stated) ?
## Result Not met

## Task Criterion: MIC strictly below 2 µg/mL. Is it met by CCCCSC/C=C(\C)C[C@@H]1OCC(C[C@@H]2O[C@H]2[C@@H](C)[C@H](C)O)[C@@H](O)[C@H]1O (some centres not stated) ?
## Result Not met

====

Measured MIC, listed per entry for reference.
system: Streptococcus pyogenes; test: In vitro antibacterial activity against Streptococcus pyogenes EES 61; type: functional; details: Streptococcus pyogenes; read-out: MIC
Only the number, expressed in µg/mL, is required.

{"compound": "CCCCS(=O)(=O)/C=C(\\C)C[C@@H]1OCC(C[C@@H]2O[C@H]2[C@@H](C)[C@H](C)O)[C@@H](O)[C@H]1O (stereo partly drawn)", "MIC / µg/mL": 25}
{"compound": "CCCC[S+]([O-])/C=C(\\C)C[C@@H]1OCC(C[C@@H]2O[C@H]2[C@@H](C)[C@H](C)O)[C@@H](O)[C@H]1O (stereo in doubt; 15)", "MIC / µg/mL": 100}
{"compound": "COC(=O)CCCCCCCCSC/C=C(\\C)C[C@@H]1OCC(C[C@@H]2O[C@H]2[C@@H](C)[C@H](C)O)[C@@H](O)[C@H]1O (stereo partly drawn)", "MIC / µg/mL": 50}
{"compound": "C/C(=C/Sc1ccccc1)C[C@@H]1OC[C@H](C[C@@H]2O[C@H]2[C@@H](C)[C@H](C)O)[C@@H](O)[C@H]1O", "MIC / µg/mL": 12.5}
{"compound": "COC(=O)CCCCCCCCOC(=O)/C=C(\\C)C[C@@H]1OCC(C[C@@H]2O[C@H]2[C@@H](C)[C@H](C)O)[C@@H](O)[C@H]1O (stereo partly drawn)", "MIC / µg/mL": 0.1}

## Task Kindly indicate its recorded MIC. Item: CCCCS/C=C(\C)C[C@@H]1OCC(C[C@@H]2O[C@H]2[C@@H](C)[C@H](C)O)[C@@H](O)[C@H]1O (stereo partly drawn)
## Result 0.78

## Task Kindly indicate its recorded MIC. Item: C/C(=C\C(=O)c1ccccc1)C[C@@H]1OCC(C[C@@H]2O[C@H]2[C@@H](C)[C@H](C)O)[C@@H](O)[C@H]1O (stereo partly drawn)
## Result 0.39

## Task Kindly indicate its recorded MIC. Item: COC(=O)CCCCCCCCOC/C=C(\C)C[C@@H]1OCC(C[C@@H]2O[C@H]2[C@@H](C)[C@H](C)O)[C@@H](O)[C@H]1O (stereo partly drawn)
## Result 100

## Task Kindly indicate its recorded MIC. Item: C[C@H]([C@@H]1O[C@H]1CC1CO[C@@H](CC2=CC(=O)OC2)[C@H](O)[C@@H]1O)[C@H](C)O (stereo partly drawn)
## Result 6.2

## Task Kindly indicate its recorded MIC. Item: COC(=O)CCCCCCCCCC(=O)/C=C(\C)C[C@@H]1OCC(C[C@@H]2O[C@H]2[C@@H](C)[C@H](C)O)[C@@H](O)[C@H]1O (stereo partly drawn)
## Result 0.1

====

Measured pIC50, listed per entry for reference.
biological target: Isoleucine--tRNA ligase (Escherichia coli K-12, UniProt P00956)
Sequence (P00956 whole entry): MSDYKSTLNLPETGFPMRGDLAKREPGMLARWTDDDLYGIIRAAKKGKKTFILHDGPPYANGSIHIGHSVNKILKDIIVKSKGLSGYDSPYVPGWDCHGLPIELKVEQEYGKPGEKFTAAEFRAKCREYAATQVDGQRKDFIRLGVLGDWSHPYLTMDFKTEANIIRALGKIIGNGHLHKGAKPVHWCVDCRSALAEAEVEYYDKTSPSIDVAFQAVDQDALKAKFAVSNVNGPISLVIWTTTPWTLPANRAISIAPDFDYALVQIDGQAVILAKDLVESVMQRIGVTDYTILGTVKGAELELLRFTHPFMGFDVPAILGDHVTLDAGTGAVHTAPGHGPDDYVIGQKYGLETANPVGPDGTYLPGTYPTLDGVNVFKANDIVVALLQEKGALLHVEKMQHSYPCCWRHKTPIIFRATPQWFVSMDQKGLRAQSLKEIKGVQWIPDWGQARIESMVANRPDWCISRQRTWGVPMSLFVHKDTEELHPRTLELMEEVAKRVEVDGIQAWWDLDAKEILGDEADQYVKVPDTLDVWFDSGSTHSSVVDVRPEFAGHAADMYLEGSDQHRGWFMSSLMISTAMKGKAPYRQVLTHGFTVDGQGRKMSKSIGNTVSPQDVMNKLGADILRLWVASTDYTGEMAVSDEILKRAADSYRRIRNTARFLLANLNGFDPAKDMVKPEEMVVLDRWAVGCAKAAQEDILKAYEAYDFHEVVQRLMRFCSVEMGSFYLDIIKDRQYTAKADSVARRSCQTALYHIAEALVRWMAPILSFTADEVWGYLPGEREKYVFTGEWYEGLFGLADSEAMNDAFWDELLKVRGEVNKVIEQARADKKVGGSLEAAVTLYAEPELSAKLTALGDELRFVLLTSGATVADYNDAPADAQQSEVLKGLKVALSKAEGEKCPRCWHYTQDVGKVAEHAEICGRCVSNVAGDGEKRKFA
Please express pIC50 as -log10 of the molar concentration.

{"compound": "CSC(CCCCCCCCCC(=O)/C=C(\\C)C[C@@H]1OCC(C[C@@H]2O[C@H]2[C@@H](C)[C@H](C)O)[C@@H](O)[C@H]1O)(SC)SC (stereo partly drawn)", "reported result": 4.83}

## Task Kindly indicate its recorded pIC50. Item: COC(=O)CCCCCCCCCC(=O)/C=C(\C)C[C@@H]1OCC(C[C@@H]2O[C@H]2[C@@H](C)[C@H](C)O)[C@@H](O)[C@H]1O (stereo partly drawn)
## Result 5.48

====

system: Staphylococcus epidermidis; test: In vitro antibacterial activity against Staphylococcus epidermidis 3519; assay type: functional
Measured MIC, listed per entry for reference.
Only the number, expressed in µg/mL, is required.

Example entries and their recorded answers appear below.
{"compound": "C/C(=C\\C(=O)c1ccccc1)C[C@@H]1OCC(C[C@@H]2O[C@H]2[C@@H](C)[C@H](C)O)[C@@H](O)[C@H]1O (some centres undefined)", "target of assay": "Staphylococcus epidermidis", "MIC, µg/mL": 0.39}
{"compound": "CCCCOC/C=C(\\C)C[C@@H]1OCC(C[C@@H]2O[C@H]2[C@@H](C)[C@H](C)O)[C@@H](O)[C@H]1O (some centres undefined)", "target of assay": "Staphylococcus epidermidis", "MIC, µg/mL": 100}

Now look at this one.
## Task Kindly indicate its recorded MIC. Item: C/C(=C/Sc1ccccc1)C[C@@H]1OC[C@H](C[C@@H]2O[C@H]2[C@@H](C)[C@H](C)O)[C@@H](O)[C@H]1O
## Result 50

====

Measured log10 of MIC, listed per entry for reference.
tested on: Escherichia coli; test: In vitro antibacterial activity against Escherichia coli SS; type: functional; details: Escherichia coli; read-out: MIC
Recorded MIC (log10, mg/L)

Example entries and their recorded answers appear below.
{"compound": "COC(=O)CCCCCCCCSC/C=C(\\C)C[C@@H]1OCC(C[C@@H]2O[C@H]2[C@@H](C)[C@H](C)O)[C@@H](O)[C@H]1O (stereo partly specified)", "property measured": "log10 of MIC", "reported result": 1.40}
{"compound": "COC(=O)CCCCCCCCCC(=O)/C=C(\\C)C[C@@H]1OCC(C[C@@H]2O[C@H]2[C@@H](C)[C@H](C)O)[C@@H](O)[C@H]1O (stereo partly specified)", "property measured": "log10 of MIC", "reported result": -1.30}
{"compound": "C/C(=C/Sc1ccccc1)C[C@@H]1OC[C@H](C[C@@H]2O[C@H]2[C@@H](C)[C@H](C)O)[C@@H](O)[C@H]1O", "property measured": "log10 of MIC", "reported result": 1.10}
{"compound": "COC(=O)CCCCCCCCOC(=O)/C=C(\\C)C[C@@H]1OCC(C[C@@H]2O[C@H]2[C@@H](C)[C@H](C)O)[C@@H](O)[C@H]1O (stereo partly specified)", "property measured": "log10 of MIC", "reported result": -1.30}
{"compound": "C[C@H]([C@@H]1O[C@H]1CC1CO[C@@H](Cc2ccoc2)[C@H](O)[C@@H]1O)[C@H](C)O (stereo partly specified)", "property measured": "log10 of MIC", "reported result": 2.00}
{"compound": "CCCCS/C=C(\\C)C[C@@H]1OCC(C[C@@H]2O[C@H]2[C@@H](C)[C@H](C)O)[C@@H](O)[C@H]1O (stereo partly specified)", "property measured": "log10 of MIC", "reported result": -0.11}

## Task Kindly indicate its recorded log10 of MIC. Item: C[C@H]([C@@H]1O[C@H]1CC1CO[C@@H](CC2=CC(=O)OC2)[C@H](O)[C@@H]1O)[C@H](C)O (stereo partly specified)
## Result 1.40

## Task Kindly indicate its recorded log10 of MIC. Item: CCCCOC/C=C(\C)C[C@@H]1OCC(C[C@@H]2O[C@H]2[C@@H](C)[C@H](C)O)[C@@H](O)[C@H]1O (stereo partly specified)
## Result 1.10

## Task Kindly indicate its recorded log10 of MIC. Item: CCCC[S+]([O-])/C=C(\C)C[C@@H]1OCC(C[C@@H]2O[C@H]2[C@@H](C)[C@H](C)O)[C@@H](O)[C@H]1O (stereo in doubt; 15)
## Result 2.00

## Task Kindly indicate its recorded log10 of MIC. Item: COC(=O)CCCCCCCCOC/C=C(\C)C[C@@H]1OCC(C[C@@H]2O[C@H]2[C@@H](C)[C@H](C)O)[C@@H](O)[C@H]1O (stereo partly specified)
## Result 1.10

src = ChEMBL document CHEMBL1124316
